The origin of these recorded values is paper PMC10663500.

Can you tell me kon for the items I'm about to list?
target: T1, mouse programmed cell death protein 1 Fc fusion protein (mPD-1-Fc), mPD-1 C60S (aa 25-167) (Mus musculus, UniProt Q02242, stabilised); test: SPR; Carterra LSA; Fab from the ammonium sulfate precipitate of the culture supernatant immobilised on a NiHC200M chip; hPD-1 (1-1024 nM) or mPD-1-Fc (4-1024 nM) as analyte, fourfold dilution series, no regeneration; HBS-EP pH 7.4, 25 °C; medians over the spots of a construct, KD = koff/kon; settings: one partner purified
T1 construct: not cleaved; source: Expi293F, purified (Protein A, SEC; dimeric fraction); not shown: Fc (human), C-terminal, kept

# input Return reported kon; argument: toripalimab Fab L.H98Y (Fab, V domains shown, as the heavy chain of Sm3; light chain of Sm3 with this change; numbers count from the chain's first residue; source: Brevibacillus, culture supernatant (ammonium sulfate precipitate); not shown: 6xHis, C-terminal, kept; 6xHN, C-terminal, kept) VH: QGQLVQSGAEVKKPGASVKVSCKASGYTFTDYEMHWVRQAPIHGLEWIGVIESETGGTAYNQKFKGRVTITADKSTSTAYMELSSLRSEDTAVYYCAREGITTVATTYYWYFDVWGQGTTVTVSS VL: DVVMTQSPLSLPVTLGQPASISCRSSQSIVHSNGNTYLEWYLQKPGQSPQLLIYKVSNRFSGVPDRFSGSGSGTDFTLKISRVEAEDVGVYYCFQGSYVPLTFGQGTKLEIK
# output 37400 M⁻¹ s⁻¹

# input Recorded kon of toripalimab Fab H.N61A (Fab, V domains shown, heavy chain of Sm3 with this change; numbers count from the chain's first residue; as the light chain of Sm3; source: Brevibacillus, culture supernatant (ammonium sulfate precipitate); not shown: 6xHis, C-terminal, kept; 6xHN, C-terminal, kept) VH: QGQLVQSGAEVKKPGASVKVSCKASGYTFTDYEMHWVRQAPIHGLEWIGVIESETGGTAYAQKFKGRVTITADKSTSTAYMELSSLRSEDTAVYYCAREGITTVATTYYWYFDVWGQGTTVTVSS VL: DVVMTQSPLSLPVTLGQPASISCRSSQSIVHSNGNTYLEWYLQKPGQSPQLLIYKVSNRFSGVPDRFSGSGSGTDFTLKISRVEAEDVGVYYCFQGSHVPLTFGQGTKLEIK , please.
# output 44100 M⁻¹ s⁻¹

# input // returns reported kon for input toripalimab Fab L.S57Y (Fab, V domains shown, as the heavy chain of Sm3; light chain of Sm3 with this change; numbers count from the chain's first residue; source: Brevibacillus, culture supernatant (ammonium sulfate precipitate); not shown: 6xHis, C-terminal, kept; 6xHN, C-terminal, kept) VH: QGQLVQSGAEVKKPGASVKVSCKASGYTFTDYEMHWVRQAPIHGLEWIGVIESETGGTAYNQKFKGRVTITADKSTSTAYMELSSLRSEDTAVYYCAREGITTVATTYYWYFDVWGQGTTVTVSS VL: DVVMTQSPLSLPVTLGQPASISCRSSQSIVHSNGNTYLEWYLQKPGQSPQLLIYKVYNRFSGVPDRFSGSGSGTDFTLKISRVEAEDVGVYYCFQGSHVPLTFGQGTKLEIK
# output 45300 M⁻¹ s⁻¹
